assay target: Adenosine receptor A1 (Homo sapiens) (UniProt P30542)
procedure summary: Percent remaining of radioligand [3H]DPCPX binding to human adenosine A1 receptor at 10 uM
quantity name: Remaining (%)

Reference set, count: 10
>>> df
                           molecular_string  reading_unit  obs_value
0    C/N=c1\nc(-c2ccccc2)n(-c2ccc(OC)cc2)s1             %        132
1     C/N=c1\nc(-c2ccccc2)n(-c2cccc(C)c2)s1             %        109
2       CC/N=c1\nc(-c2ccccc2)n(-c2ccccc2)s1             %        114
3  CC/N=c1\nc(-c2ccc(Cl)cc2)n(-c2ccc(Cl)cc2)s1             %         84
4  C/N=c1\nc(-c2ccc(C)cc2)n(-c2ccc(C)cc2)s1             %         97
5        C/N=c1\nc(-c2ccccc2)n(-c2ccccc2)s1             %        149
6   CC/N=c1\nc(-c2ccccc2)n(-c2ccc(Cl)cc2)s1             %        109
7  CC/N=c1\nc(-c2ccccc2)n(-c2ccc(Cl)c(Cl)c2)s1             %         90
8    C/N=c1\nc(-c2ccccc2)n(-c2ccc(Cl)cc2)s1             %        126
9  CC/N=c1\nc(-c2ccc(C)cc2)n(-c2ccc(C)cc2)s1             %         61

(P) CC/N=c1\nc(-c2ccccc2)n(-c2ccc(C)cc2)s1
(Q) Cc1sc(N)c(C(=O)c2cccc(C(F)(F)F)c2)c1C
IN: Of P and Q , whose reported Remaining is numerically smaller? # answer = label of selected item
OUT: Q
(Q: 68%, P: 105%)

(A) C/N=c1\nc(-c2ccccc2)n(-c2ccc(C)cc2)s1
(B) CC/N=c1\nc(-c2ccccc2)n(-c2cccc(C)c2)s1
IN: Compare the recorded Remaining of A and B ; state which is larger. # answer = label of selected item
OUT: A
(A: 123%, B: 75%)

----------
assay target: Adenosine receptor A1 (Homo sapiens) (UniProt P30542)
procedure summary: Percent remaining of radioligand [3H]CCPA binding to human adenosine A1 receptor at 10 uM
quantity name: Remaining (%)

>>> df
                           molecular_string  quantity_name  obs_value
0    C/N=c1\nc(-c2ccc(Cl)cc2)n(-c2ccccc2)s1      Remaining         15
1    C/N=c1\nc(-c2ccccc2)n(-c2cccc(Cl)c2)s1      Remaining         35
2    CC/N=c1\nc(-c2ccccc2)n(-c2ccc(C)cc2)s1      Remaining         28
3   CC/N=c1\nc(-c2ccccc2)n(-c2cccc(Cl)c2)s1      Remaining         39
4  C/N=c1\nc(-c2ccccc2)n(-c2ccc(Cl)c(Cl)c2)s1      Remaining         33
5     C/N=c1\nc(-c2ccccc2)n(-c2cccc(C)c2)s1      Remaining          5
6    C/N=c1\nc(-c2ccccc2)n(-c2ccc(Cl)cc2)s1      Remaining         33
7     Cc1sc(N)c(C(=O)c2cccc(C(F)(F)F)c2)c1C      Remaining        225
8    C/N=c1\nc(-c2ccc(OC)cc2)n(-c2ccccc2)s1      Remaining         35
9   CC/N=c1\nc(-c2ccccc2)n(-c2ccc(OC)cc2)s1      Remaining         24

(I) C/N=c1\nc(-c2ccccc2)n(-c2ccccc2)s1
(II) CC/N=c1\nc(-c2ccccc2)n(-c2ccc(Cl)cc2)s1
IN: Compare the recorded Remaining of I and II ; state which is larger. # answer = label of selected item
OUT: II
(II: 30%, I: 10%)

(I) CC/N=c1\nc(-c2ccccc2)n(-c2ccccc2)s1
(II) C/N=c1\nc(-c2ccccc2)n(-c2ccc(C)cc2)s1
IN: Compare the recorded Remaining of I and II ; state which is larger. # answer = label of selected item
OUT: II

(a) C/N=c1\nc(-c2cccc(Cl)c2)n(-c2cccc(Cl)c2)s1
(b) C/N=c1\nc(-c2ccc(Cl)cc2)n(-c2ccc(Cl)cc2)s1
(c) CC/N=c1\nc(-c2ccccc2)n(-c2cccc(C)c2)s1
IN: Please rank these compounds by Remaining in descending order. Would you mind listing the labels in the order asked for?
OUT: a, b, c

(A) CC/N=c1\nc(-c2ccccc2)n(-c2ccc(Cl)c(Cl)c2)s1
(B) CC/N=c1\nc(-c2ccc(Cl)cc2)n(-c2ccc(Cl)cc2)s1
IN: Compare the recorded Remaining of A and B ; state which is larger. # answer = label of selected item
OUT: A
(A: 35%, B: 24%)

----------
assay target: Adenosine receptor A1 (Homo sapiens)
procedure summary: Percent remaining of radioligand [3H]DPCPX binding to human adenosine A1 receptor at 1 uM
quantity name: Remaining (%)

In [3]: df
Out[3]:
                           molecular_string  obs_value
0  C/N=c1\nc(-c2ccc(Cl)cc2)n(-c2ccc(Cl)cc2)s1         93
1     Cc1sc(N)c(C(=O)c2cccc(C(F)(F)F)c2)c1C         87
2        C/N=c1\nc(-c2ccccc2)n(-c2ccccc2)s1        104
3  C/N=c1\nc(-c2ccc(C)cc2)n(-c2ccc(C)cc2)s1        104
4  C/N=c1\nc(-c2ccccc2)n(-c2ccc(Cl)c(Cl)c2)s1         94
5     C/N=c1\nc(-c2ccccc2)n(-c2ccc(C)cc2)s1         99

----------
assay target: Adenosine receptor A1 (Homo sapiens) (UniProt P30542)
Sequence (whole entry): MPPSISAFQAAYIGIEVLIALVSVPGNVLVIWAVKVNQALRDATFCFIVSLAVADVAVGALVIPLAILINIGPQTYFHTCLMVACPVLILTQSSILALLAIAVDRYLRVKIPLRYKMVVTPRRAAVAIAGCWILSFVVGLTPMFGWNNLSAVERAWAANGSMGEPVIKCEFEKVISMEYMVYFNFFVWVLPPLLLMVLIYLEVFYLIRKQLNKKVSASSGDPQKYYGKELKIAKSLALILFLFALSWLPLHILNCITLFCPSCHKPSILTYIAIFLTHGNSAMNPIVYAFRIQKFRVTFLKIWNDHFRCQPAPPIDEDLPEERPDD
procedure summary: Percent remaining of radioligand [3H]DPCPX binding to human adenosine A1 receptor at 10 uM
quantity name: Remaining (%)

>>> df
                           molecular_string                              assay_target  quantity_name  reading_unit  obs_value
0  C/N=c1\nc(-c2ccc(Cl)cc2)n(-c2ccc(Cl)cc2)s1  Adenosine receptor A1 (Homo sapiens) (UniProt P30542)      Remaining             %        119
1   CC/N=c1\nc(-c2ccccc2)n(-c2ccc(OC)cc2)s1  Adenosine receptor A1 (Homo sapiens) (UniProt P30542)      Remaining             %        120
2    C/N=c1\nc(-c2ccccc2)n(-c2cccc(Cl)c2)s1  Adenosine receptor A1 (Homo sapiens) (UniProt P30542)      Remaining             %        108
3   CC/N=c1\nc(-c2ccccc2)n(-c2cccc(Cl)c2)s1  Adenosine receptor A1 (Homo sapiens) (UniProt P30542)      Remaining             %         86
4  C/N=c1\nc(-c2cccc(Cl)c2)n(-c2cccc(Cl)c2)s1  Adenosine receptor A1 (Homo sapiens) (UniProt P30542)      Remaining             %         93
5  C/N=c1\nc(-c2ccccc2)n(-c2ccc(Cl)c(Cl)c2)s1  Adenosine receptor A1 (Homo sapiens) (UniProt P30542)      Remaining             %        111
6    C/N=c1\nc(-c2ccc(Cl)cc2)n(-c2ccccc2)s1  Adenosine receptor A1 (Homo sapiens) (UniProt P30542)      Remaining             %        119
7    C/N=c1\nc(-c2ccc(OC)cc2)n(-c2ccccc2)s1  Adenosine receptor A1 (Homo sapiens) (UniProt P30542)      Remaining             %        114

----------
assay target: Adenosine receptor A1 (Homo sapiens)
procedure summary: Percent remaining of radioligand [3H]CCPA binding to human adenosine A1 receptor at 10 uM
quantity name: Remaining (%)

>>> df
                           molecular_string  reading_unit  obs_value
0  C/N=c1\nc(-c2ccc(C)cc2)n(-c2ccc(C)cc2)s1             %         20
1  CC/N=c1\nc(-c2ccc(C)cc2)n(-c2ccc(C)cc2)s1             %         32
2    C/N=c1\nc(-c2ccccc2)n(-c2ccc(OC)cc2)s1             %         24
